The values you see were collected from the supplement of paper PMC9112550.

I'd be grateful if you could share measured shrunken log2 fold change for these entries.
tested on: Escherichia coli TOP10; experiment: shrunken log2 fold change of peptide-encoding DNA abundance (4.5 h post-induction vs induction); higher = less antimicrobial activity (less host growth inhibition); conditions: time post-induction: 4.5 h; library: site-saturation at positions 5, 18, 19, 20

Reported shrunken log2 fold change for `RRIRSRPPRLPRPRPRPTNTPRP` : what is it? 0.0794

Reported shrunken log2 fold change for `RRIRQRPPRLPRPRPRPVMRPRP` : what is it? 0.444

Reported shrunken log2 fold change for `RRIRWRPPRLPRPRPRPYIHPRP` : what is it? -0.405

Reported shrunken log2 fold change for `RRIRNRPPRLPRPRPRPTCCPRP` : what is it? -0.0383

Reported shrunken log2 fold change for `RRIRSRPPRLPRPRPRPHKMPRP` : what is it? -0.156

---

test system: Escherichia coli TOP10; assay: shrunken log2 fold change of peptide-encoding DNA abundance (4.5 h post-induction vs induction); higher = less antimicrobial activity (less host growth inhibition); conditions: time post-induction: 4.5 h; library: site-saturation at positions 5, 18, 19, 20
quantity-kind: shrunken log2 fold change
Keep the answer to the number alone.

Reported shrunken log2 fold change for `RRIRFRPPRLPRPRPRPMIDPRP` : what is it? -0.209

Reported shrunken log2 fold change for `RRIRYRPPRLPRPRPRPHAKPRP` : what is it? -0.0339

Reported shrunken log2 fold change for `RRIRDRPPRLPRPRPRPVVFPRP` : what is it? 0.457

Reported shrunken log2 fold change for `RRIRSRPPRLPRPRPRPWSRPRP` : what is it? -0.199

Reported shrunken log2 fold change for `RRIRWRPPRLPRPRPRPTVWPRP` : what is it? 0.533

Reported shrunken log2 fold change for `RRIRFRPPRLPRPRPRPQANPRP` : what is it? -0.0788

Reported shrunken log2 fold change for `RRIRIRPPRLPRPRPRPPNFPRP` : what is it? -0.108

Reported shrunken log2 fold change for `RRIRDRPPRLPRPRPRPWQNPRP` : what is it? -0.0811

Reported shrunken log2 fold change for `RRIRIRPPRLPRPRPRPVNHPRP` : what is it? -0.288

Reported shrunken log2 fold change for `RRIRLRPPRLPRPRPRPCQDPRP` : what is it? 0.0219

---

I'd be grateful if you could share measured shrunken log2 fold change for these entries.
system: Escherichia coli TOP10; assay: shrunken log2 fold change of peptide-encoding DNA abundance (4.5 h post-induction vs induction); higher = less antimicrobial activity (less host growth inhibition); conditions: time post-induction: 4.5 h; library: site-saturation at positions 5, 18, 19, 20;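 also: peptides expressed intracellularly from a pBAD plasmid library in pooled LB shake-flask culture, induced with 0.3% L-arabinose, DNA abundance read by NGS, three biological replicates, DESeq2 with apeglm shrinkage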
Keep the answer to the number alone.

Reported shrunken log2 fold change for `RRIRHRPPRLPRPRPRPCHNPRP` : what is it? -0.261

Reported shrunken log2 fold change for `RRIRTRPPRLPRPRPRPMSIPRP` : what is it? -0.143

Reported shrunken log2 fold change for `RRIRIRPPRLPRPRPRPVESPRP` : what is it? -0.0832

Reported shrunken log2 fold change for `RRIRQRPPRLPRPRPRPRVNPRP` : what is it? -0.0952

Reported shrunken log2 fold change for `RRIRIRPPRLPRPRPRPLVPPRP` : what is it? -0.33

Reported shrunken log2 fold change for `RRIRTRPPRLPRPRPRPKHYPRP` : what is it? -0.339

Reported shrunken log2 fold change for `RRIRYRPPRLPRPRPRPAGAPRP` : what is it? 0.421

Reported shrunken log2 fold change for `RRIRLRPPRLPRPRPRPCYPPRP` : what is it? -0.661

Reported shrunken log2 fold change for `RRIRRRPPRLPRPRPRPVLIPRP` : what is it? 0.177

Reported shrunken log2 fold change for `RRIRVRPPRLPRPRPRPIHKPRP` : what is it? -0.203

Reported shrunken log2 fold change for `RRIRYRPPRLPRPRPRPTCDPRP` : what is it? -0.424

Reported shrunken log2 fold change for `RRIRQRPPRLPRPRPRPVYIPRP` : what is it? -0.214

Reported shrunken log2 fold change for `RRIRTRPPRLPRPRPRPCHDPRP` : what is it? -0.215

Reported shrunken log2 fold change for `RRIRCRPPRLPRPRPRPQHSPRP` : what is it? -0.764

Reported shrunken log2 fold change for `RRIRKRPPRLPRPRPRPRQCPRP` : what is it? -0.0759

Reported shrunken log2 fold change for `RRIRYRPPRLPRPRPRPCPMPRP` : what is it? -0.476

Reported shrunken log2 fold change for `RRIRLRPPRLPRPRPRPMILPRP` : what is it? -0.677

Reported shrunken log2 fold change for `RRIRFRPPRLPRPRPRPHQDPRP` : what is it? -0.0339

Reported shrunken log2 fold change for `RRIRNRPPRLPRPRPRPQAGPRP` : what is it? -0.128

Reported shrunken log2 fold change for `RRIRDRPPRLPRPRPRPWDGPRP` : what is it? -0.0761

Reported shrunken log2 fold change for `RRIRWRPPRLPRPRPRPELRPRP` : what is it? 0.0333

Reported shrunken log2 fold change for `RRIRPRPPRLPRPRPRPHMTPRP` : what is it? -0.47

Reported shrunken log2 fold change for `RRIRLRPPRLPRPRPRPHCIPRP` : what is it? -0.0543

Reported shrunken log2 fold change for `RRIRRRPPRLPRPRPRPEMMPRP` : what is it? 0.345

Reported shrunken log2 fold change for `RRIRMRPPRLPRPRPRPEHYPRP` : what is it? -0.0905

Reported shrunken log2 fold change for `RRIRMRPPRLPRPRPRPISLPRP` : what is it? 0.0356

Reported shrunken log2 fold change for `RRIRMRPPRLPRPRPRPVYTPRP` : what is it? 0.194
